target: CYP2B6 (Homo sapiens, UniProt P20813); construct: Two studies were conducted in human liver microsomes (HLM); tissue Eurofins G232 panel; host or cells: human liver microsomes; format: in vitro ADME; conditions: microsomes
Sequence (P20813 whole entry): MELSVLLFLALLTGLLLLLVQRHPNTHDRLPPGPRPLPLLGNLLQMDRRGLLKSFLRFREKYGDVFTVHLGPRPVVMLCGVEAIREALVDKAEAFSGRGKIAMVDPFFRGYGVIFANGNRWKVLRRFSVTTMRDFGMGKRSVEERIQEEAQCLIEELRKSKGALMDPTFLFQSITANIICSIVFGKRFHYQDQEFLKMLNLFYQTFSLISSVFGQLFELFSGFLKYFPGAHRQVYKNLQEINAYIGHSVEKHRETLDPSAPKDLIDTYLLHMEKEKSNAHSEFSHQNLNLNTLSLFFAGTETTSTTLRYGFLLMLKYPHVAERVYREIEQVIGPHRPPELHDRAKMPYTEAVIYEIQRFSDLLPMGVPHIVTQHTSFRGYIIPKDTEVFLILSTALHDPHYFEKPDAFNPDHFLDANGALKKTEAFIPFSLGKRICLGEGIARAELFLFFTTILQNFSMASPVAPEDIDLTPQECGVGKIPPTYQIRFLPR
measuredAttribute: IC50 (µM)

smiles=Cc1ncc(CN2CCOCC2)c(-c2ncc[nH]2)c1O valuemeasured=213

====

target: CYP3A (Homo sapiens); construct: Two studies were conducted in human liver microsomes (HLM); tissue Eurofins G232 panel; host or cells: human liver microsomes; assay type: in vitro ADME; conditions: CYP3A, HLM, testosterone; from one-point % inhibition at 10 μM, IC50=[I]*(100−P)/P; read-out: Estimated IC50
Sequence (P08684 2-503): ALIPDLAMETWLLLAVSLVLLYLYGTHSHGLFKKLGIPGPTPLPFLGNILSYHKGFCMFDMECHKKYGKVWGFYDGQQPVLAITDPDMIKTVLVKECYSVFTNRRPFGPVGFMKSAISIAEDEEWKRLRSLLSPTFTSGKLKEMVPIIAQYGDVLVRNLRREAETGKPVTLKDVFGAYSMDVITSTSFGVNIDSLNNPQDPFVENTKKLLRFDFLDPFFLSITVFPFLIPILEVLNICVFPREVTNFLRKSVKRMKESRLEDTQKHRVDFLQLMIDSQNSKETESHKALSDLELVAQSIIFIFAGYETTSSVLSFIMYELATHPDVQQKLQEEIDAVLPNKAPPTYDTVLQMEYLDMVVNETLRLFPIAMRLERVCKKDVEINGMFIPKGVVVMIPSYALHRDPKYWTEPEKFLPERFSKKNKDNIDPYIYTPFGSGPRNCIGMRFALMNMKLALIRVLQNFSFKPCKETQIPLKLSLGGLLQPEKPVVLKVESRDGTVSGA
pIC50: −log10 of the molar value.
measuredAttribute: pIC50

compound="Cc1ncc(CN2CCOCC2)c(-c2ncc[nH]2)c1O [PTG-630]" valuemeasured=3.20
